Tested on: SNB-75 CNS
Test: NCI-60 one-dose screen, 48 h (100 = growth as untreated, 0 = no growth, -100 = all killed)
Details: 10 µM unless noted
This is part of a sample that, as a whole, favours compounds with a hit. Of some 83,000 tested, about 20% had one in any assay.
Reported growth values for a set of compounds
Experimental endpoint: growth (%)

In [3]: df
Out[3]:
                                    compound  experimental_endpoint  value_observed
 0  CC1CCCN(CCCCCOc2ccc3oc4ccccc4c(=O)c3c2)C1 (stereo unspecified)                 growth            75.8
 1  NS(=O)(=O)c1ccc(-n2ncc(NC(=O)Nc3ccc(S(=O)(=O)Nc4nccs4)cc3)c2-c2ccccc2)cc1                 growth            65.7
 2  CCCCN(CCCC)CC(CN(CC)CC)OC(=O)Nc1ccccc1 (stereo unspecified)                 growth            78.3
 3                             CN(C)C1=NCCN1                 growth            75.8
 4  CCCCn1c(=O)c(/C=C/C(=O)/C=C/c2ccc(OC)cc2)cc2cc(Cl)ccc21                 growth            84.9
 5                 COc1ccc(OCC(=O)OC(C)C)cc1                 growth              85
 6  O=c1[nH]nc(-c2ccc(Br)cc2)c2sc(NC(=S)Nc3ccc(Cl)cc3)nc12                 growth            95.7
 7  N#Cc1c(-c2ccc(F)cc2)nc(N/N=C/c2c[nH]c3ccccc23)nc1N1CCOCC1                 growth            62.5
 8                   CCCn1c(N)c(C(N)=O)sc1=S                 growth            82.9
 9  O=C(Nc1ccc2ncnc(Nc3cccc(C(F)(F)F)c3)c2c1)c1cccs1                 growth            89.2
10  c1ccc(-c2n(Cc3ccc4ccccc4n3)cc[n+]2Cc2ccc3ccccc3n2)cc1                 growth            42.6

* * *

Reported growth values for a set of molecules
Tested on: HCT-116 colon
Experiment: NCI-60 one-dose screen, 48 h (100 = growth as untreated, 0 = no growth, -100 = all killed)
Conditions: 10 µM unless noted
This is part of a sample that, as a whole, favours compounds with a hit. Of some 83,000 tested, about 20% had one in any assay.

Molecule	growth / %
C#Cc1ccccc1NC(=O)c1sc2nc3c(cc2c1N)CCCCC3	109
Cc1nnc(/N=C2\NC(=O)/C(=C/c3ccc(N(C)C)cc3)S2)s1	54.6
O=C1CC23OC(C(O)c4ccccc4N12)C1C(c2ccccc2)=NOC13 (stereo not drawn)	21.3
CC(C)NS(=O)(=O)c1cccc(-c2ccc3c4c(n(CCCN(C)C)c(=O)c3c2)-c2ccccc2C4=O)c1	-66
C=C(C)[C@@H]1CC[C@]2(C(=O)O)CC[C@]3(C)[C@H](CC[C@@H]4[C@@]5(C)C[C@@H](CC#Cc6ccccc6C)C(=O)C(C)(C)[C@@H]5CC[C@]43C)[C@@H]12	12.5
COc1cc(C(=O)Nc2cc(OC)c3ccn(C)c3c2)cc2c1C[C@]1(C)CC[C@@H](O)C(C)(C)[C@H]1O2	12.6
CC1(C)[C@@H](O)CC[C@]2(C)[C@H]3CC[C@@H]4[C@H]5[C@H](c6cn(-c7ccccc7)nn6)CC[C@]5(CO)CC[C@@]4(C)[C@]3(C)CC[C@@H]12	94.4
O=C1C(=O)c2c(nc3ccc(C(F)(F)F)cn23)-c2ccccc21	-74.9
COc1ccc(-c2nnc(N3CCN(C(=O)CN4CCN(c5ccc(OC)cc5)CC4)CC3)nc2-c2ccc(OC)cc2)cc1	-41.1
O=C(Nc1ccccc1)NS(=O)(=O)c1c[nH]c(=S)[nH]c1=O	93.8
COc1ccc2nc(-c3ccc(Cl)cc3)cc(C(=O)N3N=C(c4ccc(N)cc4)CC3c3ccccc3)c2c1 (stereo not drawn)	34.8
CC1(c2ccccc2Cl)NC(=O)NC1=O (stereo not drawn)	107
CCC[S@@](=O)c1ccc2nc(NC(=O)OC)[nH]c2c1	79.6
Cc1cc(C)c2nc(Nc3nc(C)c(C)c(=O)[nH]3)nc(C)c2c1	3.76
O=C(Nc1ccc(N=Cc2ccccc2O)cc1)NC1C=c2ccccc2=CC1 (stereo not drawn)	104
COc1ccc(Nc2nc(SCC(C)C)nc(-c3ccc(F)cc3)c2C#N)cc1	35.7
Oc1c(CCl)cc(Cl)cc1Cc1cc(Cl)cc(Cc2cc(Cl)cc(CCl)c2O)c1O	3.12
O=c1[nH]c2ccccc2cc1-c1nc2ccc(Cl)cc2[nH]1	22.2
CCOc1ccccc1C(=O)/C=C/c1cc2ccccc2[nH]c1=O	-64.7
O=[N+]([O-])c1ccc(Oc2ccc(-c3ccccc3)cc2)cc1	73.4
Cc1cnc(-c2ccc(-c3ccc(NC(=O)Nc4c(F)cc(F)cc4F)cc3F)c3c2C(=O)NC3)[nH]1	14.2
Cc1cc(Nc2nc(SCc3ccc(C(=O)Nc4ccc(F)cc4N)cc3)nn3cccc23)n[nH]1	10.1
Cc1c(Cl)cccc1NC(=O)c1sc2nc3c(cc2c1N)CCCCCC3	5.07
COc1ccc2[nH]c(-c3ccccc3)c(C=C(C#N)C#N)c2c1	23.5
CCCCCOC(=O)c1ccccc1O	98.9
Nc1n[nH]c2cccc(C#Cc3cccc(NC(=O)c4cc(N5CCOCC5)cc(C(F)(F)F)c4)c3)c12	19.4
CN1CC=C(c2cc(NC(=O)Nc3ccc(Oc4ccnc(NC(=O)C5CC5)c4)c(F)c3)cc(C(F)(F)F)c2)CC1	-10.7
COc1ccc(/C(=N\O)c2cc(C)c(OC)c(C)c2)cc1O	6.63
O=C1c2ccccc2C(=O)c2c1oc1c2c(=O)[nH]c2ccc(Cl)cc21	-12.2
CCOC(=O)c1c(C)nc2c(c1N)/C(=C/c1ccccn1)C(=O)N2Cc1ccccc1	-21.8
N#Cc1c(-c2ccc(F)cc2)nc(N/N=C/c2c[nH]c3ccccc23)nc1N1CCOCC1	44.3
COc1cc2c(cc1OCCCOc1cc3c(cc1OC)C(=O)N1CC(F)(F)C[C@H]1C=N3)N=C[C@@H]1CC(F)(F)CN1C2=O	4.77
COc1cc(/C=C/C(=O)c2ccc(NC(=O)CSc3nnc(-c4cc(OC)c(OC)c(OC)c4)n3-c3ccccc3)cc2)cc(OC)c1OC	-80.6
COc1ccc(-c2[nH]c3ccccc3c2C=C(C#N)C#N)cc1	4.01
COc1ccc(C(=O)c2cc(OC)c(C)c(OC)c2)cc1OC(=O)CCl	10.2
[2H]c1nc(Nc2ncc3cc(C(=O)N(C)C)n(C4CCCC4)c3n2)c([2H])c([2H])c1N1C([2H])([2H])C([2H])([2H])NC([2H])([2H])C1([2H])[2H]	40.9
N#Cc1ccc(N2Cc3cc(Cl)ccc3OC3=C2C(=O)N(Cc2ccccc2)C3=O)cc1	-82.7
C(=C\c1cn(-c2ccccc2)nc1-c1ccccc1)/c1nnc(-c2c[nH]c3ccccc23)o1	24.7

* * *

Test system: RPMI-8226 leukemia
Test: NCI-60 one-dose screen, 48 h
Settings: 10 µM unless noted
Compounds without any hit were thinned out: in the full panel of roughly 83,000, 20% have a hit. The source made the active and inactive calls. The calls were made as follows: active = growth percent below 10; inactive = the rest.
Classes used: true for active, false for inactive

Compound	Group label
Nc1ccc2c(c1)C(=O)C(=O)c1c-2nc2ccccn12	false
Cc1c(C(=O)Nc2nc3ccccc3[nH]2)cnn1-c1ccccn1	false
CC(=O)Nc1c(C(=O)Nc2ccccc2)sc2nc3c(cc12)C(OC(C)=O)CCC3 (stereo unspecified)	false
O=C1CC23OC4ON=C(Br)C4C2C(O)c2ccccc2N13 (stereo unspecified)	false
COc1ccc(C(=O)c2cc(OC)c(C)c(OC)c2)cc1OC(=O)CCl	false
CCCCCOC(=O)c1ccccc1O	false
O=c1[nH]c2ccccc2cc1-c1nc2ccc(Cl)cc2[nH]1	true
COc1cc(-c2cn(-c3ccc(Cl)c(Cl)c3)c(=O)[nH]2)cc(OC)c1OC	false
COc1cc(/C=C/C(=O)c2cccs2)ccc1OCc1ccc(Cl)nc1	false
CCOCc1nc2ccccc2c(=O)[nH]1	false
Cc1ccn2c3c(c(C(=O)O)c2c1)C(=O)c1ccccc1C3=O	false
O=C(/C(=C/c1ccc([N+](=O)[O-])cc1)SCc1ccc(F)cc1)c1ccc(Cl)cc1	true
NC(=N\N=C\c1ccccc1O)/C(N)=N/N=C/c1ccccc1O	false
NC[C@@H]1CCN(c2cc3c(cc2F)c(=O)n(N)c(=O)n3Cc2ccc(-c3ccccc3)cc2)C1	false
N#Cc1c(-c2ccc(F)cc2)nc(N/N=C/c2cccc(O)c2)nc1N1CCOCC1	false
COc1ccccc1C(=O)/C=C/c1cc2cccc(OC)c2[nH]c1=O	true
OCCNc1nc(NCCO)nc(Nc2ccc(C3=NN(c4cc(Cl)cc(Cl)c4)C(c4ccccc4)C3)cc2)n1 (stereo unspecified)	false
CCCCc1n(Cc2ccc3ccccc3c2)c2ccccc2[n+]1Cc1ccc2ccccc2c1	true
CCOC(=O)C(=Cc1c(-c2ccccc2)[nH]c2ccccc12)C(=O)OCC	true
COc1cc(C2=NN(C(C)=O)C(c3cccc(Nc4ccnc5cc(C(F)(F)F)ccc45)c3)C2)cc(OC)c1OC (stereo unspecified)	false
Cc1ccccc1NC(=O)c1sc2nc(C)c(C(C)O)cc2c1N (stereo unspecified)	false
Cc1ccc(C2=N[C@H]3CCC[C@@H]3N(c3ccccc3)C(C(Cl)Cl)=N2)cc1	false
O=C(/C(=C/c1ccc([N+](=O)[O-])cc1)SCc1ccccc1)c1ccc(Cl)cc1	true
O=C(CN1N=C(c2ccc(F)cc2)CCC1=O)Nc1nccs1	false
Cc1cccc2nc3c(n12)C(=O)C(=O)c1ccccc1-3	false
Cc1cccc(C)c1Nc1nnc(-c2ccc(F)cc2)o1	false
O=C(O)C(C(=O)O)c1cccc2ccccc12	false
Nc1ccccc1NC(=O)c1ccc(CSc2nc(N3CCOCC3)c3cccn3n2)cc1	true
O=C1NN(c2ccccc2)C(c2ccc3c(c2)OCO3)N2CCC[C@@H]12 (stereo partly specified)	false
O=C(Nc1cc(=O)[nH]c(=O)[nH]1)C(Cl)Cl	false
COC(=O)/C=C/c1cc(OC)c2c(c1)[C@@H](C(=O)OC)[C@H](c1ccc(OC)c(OC)c1)O2	false
C=C1C(=O)O[C@H]2[C@H]1CC/C(COC(=O)CCCCCCCCC(=O)OC/C1=C/CC[C@@]3(C)O[C@H]3[C@H]3OC(=O)C(=C)[C@@H]3CC1)=C\CC[C@@]1(C)O[C@@H]21	true
C=C(C)[C@@H]1CC[C@]2(C(=O)N3CCN(C)CC3)CC[C@]3(C)[C@H](CC[C@@H]4[C@@]5(C)C/C(=C/c6ccco6)C(=O)C(C)(C)[C@@H]5CC[C@]43C)[C@@H]12	false
CCCCCCCc1n(Cc2ccc3ccccc3c2)c2ccccc2[n+]1Cc1ccc2ccccc2c1	true
Cc1ccc(C2CC(c3ccc(Nc4nc(NCCO)nc(NCCO)n4)cc3)=NN2c2ccc(Cl)cc2)cc1 (stereo unspecified)	false
Oc1ccc(CNNc2ccnc3c(O)cccc23)c2cccnc12	false
O=C(NC[C@H](O)CN1CCc2ccccc2C1)c1cc(NC2COC2)ncn1	false
Sc1cccc2cccnc12	false
CSc1nc(-c2cccs2)c2c(N)[nH]nc2n1	false
COc1ccc(/C=C/C(=O)Nc2ncnc3nc[nH]c23)cc1	false
C=C1C(=O)O[C@H]2[C@H]1CC/C(COC(=O)c1cc3ccccc3o1)=C\CC[C@@]1(C)O[C@@H]21	true
